Target: porcine pancreatic kallikrein (PPK) (Sus scrofa, UniProt P00752)
Sequence (P00752 8-87 limits assumed): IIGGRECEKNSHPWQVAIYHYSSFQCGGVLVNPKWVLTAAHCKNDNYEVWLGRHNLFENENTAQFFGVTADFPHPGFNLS
Sequence (P00752 95-246 limits assumed): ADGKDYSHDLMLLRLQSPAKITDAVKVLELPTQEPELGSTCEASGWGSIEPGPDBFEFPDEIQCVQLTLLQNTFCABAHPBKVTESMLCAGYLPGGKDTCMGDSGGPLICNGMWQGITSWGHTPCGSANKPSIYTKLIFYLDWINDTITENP
Experiment: Inhibition of porcine pancreatic kallikrein, cleavage of chromogenic substrate S-2266 (KI)
Assay type: biochemical
Settings: Table 7, in mM; read-out: K1 PPK
Non-standard residues stand in square brackets, D forms with d. Residues, ends and D or L forms follow the SMILES beside them. Cit = NC(=O)NCCC[C@H](N)C(=O)O; Orn = NCCC[C@H](N)C(=O)O
Catalogue of Ki readings, one per entry.

Worked cases, answers included:
Compound: CSCC[C@H](NC(=O)[C@H](Cc1ccccc1)NC(=O)[C@@H]1CCCN1)C(=O)N[C@@H](CO)C(=O)N[C@H](C(=O)N[C@@H](CCC(N)=O)C(N)=O)C(C)C [KIDZ-13, Pro-Phe-Met-Ser-Val-Gln] (H-PFMSVQ-NH2)
Ki: > 4 mM
//
Compound: CC(C)[C@H](NC(=O)[C@H](CO)NC(=O)[C@H](CCCNC(N)=O)NC(=O)[C@H](Cc1ccccc1)NC(=O)[C@@H]1CCCN1)C(=O)N[C@@H](CCC(N)=O)C(N)=O [KIDZ-7, Pro-Phe-Cit-Ser-Val-Gln] (H-PF[Cit]SVQ-NH2)
Ki: > 3 mM

Field Ki (porcine pancreatic kallikrein (PPK) (Sus scrofa, UniProt P00752)), entry CC(C)[C@H](NC(=O)[C@H](CO)NC(=O)[C@H](CCCN)NC(=O)[C@H](Cc1ccccc1)NC(=O)[C@@H]1CCCN1)C(=O)N[C@@H](CCC(N)=O)C(N)=O [KIDZ-3, Pro-Phe-Orn-Ser-Val-Gln] (H-PF[Orn]SVQ-NH2) : > 5 mM

Ki on porcine pancreatic kallikrein (PPK) (Sus scrofa, UniProt P00752) for CC(C)[C@H](NC(=O)[C@H](CO)NC(=O)[C@H](Cc1c[nH]cn1)NC(=O)[C@H](Cc1ccccc1)NC(=O)[C@@H]1CCCN1)C(=O)N[C@@H](CCC(N)=O)C(N)=O [KIDZ-12, Pro-Phe-His-Ser-Val-Gln] (H-PFHSVQ-NH2) is > 1 mM

----------
Biological target: human urinary kallikrein (HUK) (Homo sapiens)
Construct: Human urinary kallikrein (HUK) was purified from human urine; from tissue
Sequence (P06870 25-262): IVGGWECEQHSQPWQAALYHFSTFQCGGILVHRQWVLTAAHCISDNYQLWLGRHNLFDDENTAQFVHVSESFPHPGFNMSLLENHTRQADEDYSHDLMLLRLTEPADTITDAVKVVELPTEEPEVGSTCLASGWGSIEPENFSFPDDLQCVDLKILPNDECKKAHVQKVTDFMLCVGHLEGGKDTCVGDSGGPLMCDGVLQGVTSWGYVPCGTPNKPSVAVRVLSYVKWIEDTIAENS
Assay: Inhibition of human urinary (tissue) kallikrein (KI)
Type: biochemical
Conditions: Table 4, Pro-X-Arg-Ser-Val-Gln; read-out: KI HUK
pKi: −log10 of the molar value. Non-standard residues stand in square brackets, D forms with d. Residues, ends and D or L forms follow the SMILES beside them. 1Nal = N[C@@H](Cc1cccc2ccccc12)C(=O)O; 2Nal = N[C@@H](Cc1ccc2ccccc2c1)C(=O)O; 2Thi = N[C@@H](Cc1cccs1)C(=O)O; Cha = N[C@@H](CC1CCCCC1)C(=O)O
Property label: pKi

Worked examples follow.
Compound: CC(C)[C@H](NC(=O)[C@H](CO)NC(=O)[C@H](CCCNC(=N)N)NC(=O)[C@H](CC1CCCCC1)NC(=O)[C@@H]1CCCN1)C(=O)N[C@@H](CCC(N)=O)C(N)=O [KCH-10] (H-P[Cha]RSVQ-NH2)
pKi: 4.04

Compound: CC(C)[C@H](NC(=O)[C@H](CO)NC(=O)[C@H](CCCNC(=N)N)NC(=O)[C@H](Cc1cccc2ccccc12)NC(=O)[C@@H]1CCCN1)C(=O)N[C@@H](CCC(N)=O)C(N)=O [KCH-7] (H-P[1Nal]RSVQ-NH2)
pKi: 4.39

I = CC(C)[C@H](NC(=O)[C@H](CO)NC(=O)[C@H](CCCNC(=N)N)NC(=O)[C@H](Cc1ccc2ccccc2c1)NC(=O)[C@@H]1CCCN1)C(=O)N[C@@H](CCC(N)=O)C(N)=O [KCH-6] (H-P[2Nal]RSVQ-NH2)
II = CC(C)[C@H](NC(=O)[C@H](CO)NC(=O)[C@H](CCCNC(=N)N)NC(=O)[C@H](Cc1cccs1)NC(=O)[C@@H]1CCCN1)C(=O)N[C@@H](CCC(N)=O)C(N)=O [KCH-4] (H-P[2Thi]RSVQ-NH2)
Input line: Param metric = pKi; output whichever of I , II has the minimum value. Bench note: the answer is the label of the chosen record.
Output line: II
(II: 3.60, I: 3.94)

----------
Biological target: UniProt:P00752
Experiment: Inhibition of porcine pancreatic kallikrein, cleavage of chromogenic substrate S-2266 (KI)
Format: biochemical
Conditions: Table 5, Pro-Phe-Arg-X-Val-Gln; read-out: KI PPK
pKi: −log10 of the molar value. Non-standard residues stand in square brackets, D forms with d. Residues, ends and D or L forms follow the SMILES beside them. hSer = N[C@@H](CCO)C(=O)O
Property label: pKi

P = CC(C)[C@H](NC(=O)[C@@H](CO)NC(=O)[C@H](CCCNC(=N)N)NC(=O)[C@H](Cc1ccccc1)NC(=O)[C@@H]1CCCN1)C(=O)N[C@@H](CCC(N)=O)C(N)=O [D-Ser] (H-PFR[dS]VQ-NH2)
Q = CC(C)[C@H](NC(=O)[C@H](CCO)NC(=O)[C@H](CCCNC(=N)N)NC(=O)[C@H](Cc1ccccc1)NC(=O)[C@@H]1CCCN1)C(=O)N[C@@H](CCC(N)=O)C(N)=O [Hse] (H-PFR[hSer]VQ-NH2)
Input line: Between P and Q , whose recorded pKi is greater? Output the label that corresponds to your choice.
Output line: Q
(Q: 3.79, P: 2.95)

----------
Target: porcine pancreatic kallikrein (PPK) (Sus scrofa, UniProt P00752)
Assay: Inhibition of porcine pancreatic kallikrein, cleavage of chromogenic substrate S-2266 (KI)
Format: biochemical
Details: Table 2, P3 substitutions; read-out: log KI (converted)
Non-standard residues stand in square brackets, D forms with d. Residues, ends and D or L forms follow the SMILES beside them. d(aIle) = CC[C@H](C)[C@@H](N)C(=O)O; dTle = CC(C)(C)[C@@H](N)C(=O)O; dAbu = CC[C@@H](N)C(=O)O
Property label: Ki (µM)

Example molecules with recorded Ki:
Molecule: CC[C@H](C)[C@@H](N)C(=O)N[C@@H](Cc1ccccc1)C(=O)N[C@@H](CCCNC(=N)N)C(=O)N[C@@H](CO)C(=O)N[C@H](C(=O)N[C@@H](CCC(N)=O)C(N)=O)C(C)C [KKI-105] (H-[d(aIle)]FRSVQ-NH2)
Observed result: 57.5

Molecule: CC(C)[C@H](NC(=O)[C@H](CO)NC(=O)[C@H](CCCNC(=N)N)NC(=O)[C@H](Cc1ccccc1)NC(=O)[C@H](N)C(C)(C)C)C(=O)N[C@@H](CCC(N)=O)C(N)=O [KKI-84, [D-t-BuGly]-Phe-Arg-Ser-Val-Gln] (H-[dTle]FRSVQ-NH2)
Observed result: 75.9

Molecule: CC(C)[C@H](NC(=O)[C@H](CO)NC(=O)[C@H](CCCNC(=N)N)NC(=O)[C@H](Cc1ccccc1)NC(=O)CN)C(=O)N[C@@H](CCC(N)=O)C(N)=O [KKI-80, Gly-Phe-Arg-Ser-Val-Gln] (H-GFRSVQ-NH2)
Observed result: 79.4

1 = CC[C@@H](N)C(=O)N[C@@H](Cc1ccccc1)C(=O)N[C@@H](CCCNC(=N)N)C(=O)N[C@@H](CO)C(=O)N[C@H](C(=O)N[C@@H](CCC(N)=O)C(N)=O)C(C)C [KKI-82, [D-Aab]-Phe-Arg-Ser-Val-Gln] (H-[dAbu]FRSVQ-NH2)
2 = CC(C)[C@H](NC(=O)[C@H](CO)NC(=O)[C@H](CCCNC(=N)N)NC(=O)[C@H](Cc1ccccc1)NC(=O)[C@H](N)C(C)C)C(=O)N[C@@H](CCC(N)=O)C(N)=O [KKI-83, [D-Val]-Phe-Arg-Ser-Val-Gln] (H-[dV]FRSVQ-NH2)
Input line: Lowest Ki? choose 1 or 2 Returns: label corresponding to the selected item.
Output line: 1

----------
Target: human plasma kallikrein (HPK) (Homo sapiens, UniProt P03952)
Sequence (P03952 20-638): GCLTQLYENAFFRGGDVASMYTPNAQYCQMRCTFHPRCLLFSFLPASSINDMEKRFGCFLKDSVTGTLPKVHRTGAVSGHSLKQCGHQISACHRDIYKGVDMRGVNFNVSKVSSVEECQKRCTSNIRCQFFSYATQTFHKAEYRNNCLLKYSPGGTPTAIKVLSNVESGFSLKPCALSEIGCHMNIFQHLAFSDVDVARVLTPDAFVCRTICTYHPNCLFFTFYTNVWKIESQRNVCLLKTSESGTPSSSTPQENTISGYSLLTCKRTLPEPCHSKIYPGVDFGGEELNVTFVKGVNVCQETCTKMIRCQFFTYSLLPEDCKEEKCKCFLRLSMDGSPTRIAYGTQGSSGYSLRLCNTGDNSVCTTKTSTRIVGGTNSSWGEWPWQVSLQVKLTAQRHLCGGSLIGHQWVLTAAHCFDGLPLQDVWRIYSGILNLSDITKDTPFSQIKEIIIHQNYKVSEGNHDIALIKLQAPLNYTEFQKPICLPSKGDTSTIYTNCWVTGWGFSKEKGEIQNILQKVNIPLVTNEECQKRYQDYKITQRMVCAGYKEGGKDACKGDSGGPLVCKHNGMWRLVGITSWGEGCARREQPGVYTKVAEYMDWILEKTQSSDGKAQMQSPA
Assay: Inhibition of human plasma kallikrein (KI)
Format: biochemical
Details: Table 4, Pro-X-Arg-Ser-Val-Gln; read-out: KI HPK
pKi: −log10 of the molar value. Non-standard residues stand in square brackets, D forms with d. Residues, ends and D or L forms follow the SMILES beside them. hPhe = N[C@@H](CCc1ccccc1)C(=O)O; 2Thi = N[C@@H](Cc1cccs1)C(=O)O; Cha = N[C@@H](CC1CCCCC1)C(=O)O
Property label: pKi

Compound: CC(C)[C@H](NC(=O)[C@H](CO)NC(=O)[C@H](CCCNC(=N)N)NC(=O)[C@H](CCc1ccccc1)NC(=O)[C@@H]1CCCN1)C(=O)N[C@@H](CCC(N)=O)C(N)=O [KCH-2] (H-P[hPhe]RSVQ-NH2)
Tested system: human plasma kallikrein (HPK) (Homo sapiens, UniProt P03952)
pKi: 3.26
//
Compound: CC(C)[C@H](NC(=O)[C@H](CO)NC(=O)[C@H](CCCNC(=N)N)NC(=O)[C@H](Cc1cccs1)NC(=O)[C@@H]1CCCN1)C(=O)N[C@@H](CCC(N)=O)C(N)=O [KCH-4] (H-P[2Thi]RSVQ-NH2)
Tested system: human plasma kallikrein (HPK) (Homo sapiens, UniProt P03952)
pKi: 3.30

I = CC(C)[C@H](NC(=O)[C@H](CO)NC(=O)[C@H](CCCNC(=N)N)NC(=O)[C@H](Cc1c[nH]c2ccccc12)NC(=O)[C@@H]1CCCN1)C(=O)N[C@@H](CCC(N)=O)C(N)=O [KCH-11] (H-PWRSVQ-NH2)
II = CC(C)[C@H](NC(=O)[C@H](CO)NC(=O)[C@H](CCCNC(=N)N)NC(=O)[C@H](CC1CCCCC1)NC(=O)[C@@H]1CCCN1)C(=O)N[C@@H](CCC(N)=O)C(N)=O [KCH-10] (H-P[Cha]RSVQ-NH2)
Input line: Hi there! Just curious which has the higher pKi between I and II . Your answer should be the label of the entry you select.
Output line: I
